Cited source: patent US20240116946A1

Target: recombinant SARS-CoV-2 Main protease (Mpro) (Severe acute respiratory syndrome coronavirus 2 (2019-nCoV) (SARS-CoV-2), UniProt P0DTD1)
Test: Cov Mpro Biochemical IC50 Assay
Settings: recombinant SARS-CoV-2 Mpro 7.5 nM, fluorogenic peptide substrate 40 μM; read-out: MPro IC50
pIC50: −log10 of the molar value.

compound: COc1cc(-c2cc3c(s2)c(=O)n(-c2cncc4cnn(C)c24)c(=O)n3CCO)c(Cl)cc1F
ltGtEq: =
pIC50: 7.70

compound: COc1ccc(Cl)c(-c2cc3[nH]c(=O)n(-c4cncc5ccsc45)c(=O)c3s2)c1
ltGtEq: =
pIC50: 8.30

compound: COc1ccc(Cl)c(-c2cc3[nH]c(=O)n(-c4cncc(CCC(=O)N5CCOCC5)c4)c(=O)c3s2)c1
ltGtEq: =
pIC50: 8.18

compound: Cc1nn(C2CCNCC2)cc1-c1cccc(Cl)c1-c1ccc2c(=O)n(-c3cncc4ccccc34)c(=O)[nH]c2c1
ltGtEq: =
pIC50: 8.29

compound: COc1cc(-c2cc3[nH]c(=O)n(-c4cncc5cccnc45)c(=O)c3s2)c(Cl)cc1F [Example 553]
ltGtEq: =
pIC50: 8.12

compound: COc1cc(-c2cc3[nH]c(=O)n(-c4cncc5nc(C(F)(F)F)sc45)c(=O)c3s2)c(Cl)cc1F
ltGtEq: =
pIC50: 5.99

compound: O=c1[nH]c2cc(-c3ccccc3Cl)sc2c(=O)n1-c1cncc2ccoc12
ltGtEq: =
pIC50: 7.68

compound: COc1ccc(Cl)c(-c2cc3[nH]c(=O)n(-c4cncc5ccc(N6CCn7nnc(C)c7C6)cc45)c(=O)c3s2)c1
ltGtEq: >
pIC50: 8.60

compound: COc1ccc(Cl)c(-c2cc3[nH]c(=O)n(-c4cncc5ccc(CO)cc45)c(=O)c3s2)c1
ltGtEq: =
pIC50: 8.15

compound: COc1cc(-c2cc3c(s2)c(=O)n(-c2cncc4cnn(C)c24)c(=O)n3CCCC#N)c(Cl)cc1F
ltGtEq: =
pIC50: 7.84

compound: O=c1[nH]c2cc(-c3ccccc3Cl)sc2c(=O)n1-c1cncc2ccc(N3CCO[C@H](C(F)(F)F)C3)cc12
ltGtEq: =
pIC50: 7.75

compound: N#CCCn1c(=O)n(-c2cncc(OC(F)F)c2)c(=O)c2sc(-c3ccccc3C#N)cc21
ltGtEq: =
pIC50: 7.24

compound: COc1cc(-c2cc3c(s2)c(=O)n(-c2cncc4ccccc24)c(=O)n3CCC#N)c(C#N)cc1F (single isomer, unassigned) [Example 968]
ltGtEq: =
pIC50: 7.05

compound: COc1cc(-c2cc3[nH]c(=O)n(-c4c(C)ccnc4F)c(=O)c3s2)c(Cl)cc1F
ltGtEq: =
pIC50: 7.87

compound: COc1cc(-c2cc3c(s2)c(=O)n(-c2cncc4nn(C)cc24)c(=O)n3CCC#N)c(Cl)cc1F
ltGtEq: =
pIC50: 8.23

compound: COc1ccc(Cl)c(-c2cc3[nH]c(=O)n(-c4cncc5cnn(C)c45)c(=O)c3s2)c1
ltGtEq: >
pIC50: 8.60

compound: COc1cc(-c2cc3[nH]c(=O)n(-c4cncc5ccccc45)c(=O)c3s2)c(C)cn1
ltGtEq: =
pIC50: 6.44

compound: COc1ccc(C#N)c(-c2cc3[nH]c(=O)n(-c4cncc5ccccc45)c(=O)c3cc2F)c1 (single isomer, unassigned) [Example 439]
ltGtEq: =
pIC50: 6.08

compound: COc1cc(-c2cc3c(s2)c(=O)n(-c2cncc4[nH]nc(C)c24)c(=O)n3CCC#N)c(Cl)cc1F [Example 768]
ltGtEq: =
pIC50: 8.28

compound: COc1ccc2cncc(-n3c(=O)[nH]c4cc(-c5c(Cl)cccc5-c5cc(C)c6ncnn6c5)sc4c3=O)c2c1
ltGtEq: >
pIC50: 8.60

compound: COc1cc(-c2cc3c(s2)c(=O)n(-c2cncc4ccc(C)nc24)c(=O)n3CCC#N)c(Cl)cc1F
ltGtEq: =
pIC50: 8.36

compound: COc1ccc(C#N)c(-c2cc3[nH]c(=O)n(-c4cncc5ccccc45)c(=O)c3s2)c1 [Example 532]
ltGtEq: >
pIC50: 8.58

compound: COc1cc(-c2cc3c(s2)c(=O)n(-c2cncc4ccccc24)c(=O)n3CC2(CC#N)CC2)c(Cl)cc1F
ltGtEq: =
pIC50: 7.53

compound: COc1cc(-c2cc3[nH]c(=O)n(-c4cncc5cnn(C)c45)c(=O)c3s2)c(Cl)cc1F [Example 505]
ltGtEq: =
pIC50: 8.26

compound: COc1cc(F)cc(Cl)c1-c1ccc2c(=O)n(-c3cncc4ccccc34)c(=O)[nH]c2c1
ltGtEq: =
pIC50: 6.47

compound: O=c1[nH]c2cc(-c3ccccc3Cl)sc2c(=O)n1-c1cncc2ccc(N3CC4(C3)CS(=O)(=O)C4)cc12
ltGtEq: =
pIC50: 8.14

compound: Cn1ncc2cncc(-n3c(=O)c4sc(-c5ccccc5C#N)cc4n(CCC#N)c3=O)c21 (single isomer, unassigned) [Example 961]
ltGtEq: =
pIC50: 8.21
